The measured values listed here are drawn from patent US20250355001A1.

// reported Epitope for each item listed
System: hT40, dGA, dGAE and truncated tau fragments
Assay: Binding ELISA / epitope mapping of anti-tau scAbs with truncated tau proteins and 13mer peptides
Design: species or system human
Details: residue numbers of SEQ ID NO: 1 (hT40); CDR Tables 1-11
Procedure: A series of binding ELISA was performed using various truncated versions of the tau protein and 13mer peptide libraries spanning the entire hT40 molecule for mapping the epitopes of anti-tau scAbs (Full list of protein antigens used is given in Table 14). […] Binding was detected using anti-Human C Kappa HRP conjugated secondary antibody and the resulting immunoreaction was developed and absorbance values measured as described above. […]
Readout Name: Epitope

INSERT INTO measurements (molecule, readout_name, measured) VALUES
  ('S2C6: anti-tau clone, Table 2; SEQ ID NO: 416 (protein, S2C6 amino acid sequence) scFv: QVQLQESGPSLVKPSQTLSLTCTVSGFSLISNSVGWVRQAPGKAPEWVAGIDTDGEEGYNPALKSQYAASDPDTSKSQVSLSLSSVTSEDTAVYYCGRTYRTDGFAYGYVQAIDYWGPGLLLTISSEGKSSGASGESKVDDQAVLTQPSSVSGSLGQRVSITCSGSFIGISSVGWFQQLPGSGLRTIIVASDGRPSGVPDRFSMSKSGNTATLTISSLQAEDEADYFCGSSDRTQYTGVFGSGTRLTVLG', 'Epitope', '367-379'),
  ('CA7: anti-tau clone, Table 10; VH SEQ ID NO: 503, VL 504 (antibody, V domains shown, CA7 VH Domain; CA7 VL Domain) VH: RVRLQGSGPSLVKPSQTLSLTCTVSGFSFDSYYVGWVRQAPGKALEWLGNIYSTGRAFYNPALKSRLSITRDTSKSQVSLSVSSVTIEDTALYYCVRGSYYHGGGNGMVDFFDYWSPGLLVTVSS VL: QVVRTQPSSVSGSLGQRVSITCSGSSSNVGYGNYVGWFQQVPGSAPKLLIYAATSRASGVPDRFSGSRSGNTATLTIDSLQAEDEADYYCSSYQRGNTGVFGSGTRLTVLG', 'Epitope', '1-319'),
  ('412E10: C-terminal anti-tau clone, Table 5; SEQ ID NO: 147 (protein, 412E10 amino acid sequence) QVQLQESGPSLVKPSQTLSLTCTVSGFSVISDSVAWVRQAPGKVPEWLGASGSSGNKYYNPALKSRLSITRDTSKSQVSLSLSSVTTEDTAVYYCARGIIAGVDVWGRGLLVTVSSEGKSSGASGESKVDDQAVLTQPSSVSGSLGQRVSITCSGSSSNVGYGNYVGWYQQVPGSAPKLLIYGTAIRASGVPDRFSGSRSGDTATLTITSLQAEDEADYYCASYQSNYAFFGSGTRLTVLG', 'Epitope', '412-441'),
  ('3bF4: anti-tau clone, Table 7; SEQ ID NO: 421 (protein, 3bF4 amino acid sequence) QVQLQESGPSLVKPSQTLSLTCTVSGFSLSSNGVGWVRQAPGKVPEWLGDISSVGKKYANPALKSRLSFTRDTSKSQVSLSLSSVTTEDTAVYYCVKCRDGGVTYGYDIDYWGPGLLVTVSSEGKSSGASGESKVDDQAVLTQPSSVSKSTGQTVSITCSGSSSNVGLRNYVTWFQQVPGSAPKLLIYGATSRASGIPDRFSGSRSGNTATLIISSLQAEDEADYYCASADTNDGGVFGSGTRLTVLG', 'Epitope', '49-111');
